Protein target, amino acids: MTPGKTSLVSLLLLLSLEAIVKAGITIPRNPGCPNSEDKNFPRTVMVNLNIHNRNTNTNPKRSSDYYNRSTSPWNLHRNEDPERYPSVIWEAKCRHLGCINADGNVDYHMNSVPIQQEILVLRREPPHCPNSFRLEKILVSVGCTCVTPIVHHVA
REPORTED METRIC: IC50 (nM)
Form entry: value (nM) — number only.

Fill blank: measured IC50 of the compound "Cc1nnc(C)n1-c1ccc(NC(=O)[C@@H](NC(=O)c2ccnn2C)C2CCCCCC2)nc1" is ____.
794

Origin of values: BindingDB's records for patent US20230286943
